target system: NrdR (Streptomyces coelicolor)
Construct: full-length wild type, C-terminal His tag (pET30a(+)::nrdR), E. coli BL21(DE3); apo dimer 44 kDa, dodecamer with ATP, octamer/tetramer with dATP + ATP
Sequence (O69980 whole entry): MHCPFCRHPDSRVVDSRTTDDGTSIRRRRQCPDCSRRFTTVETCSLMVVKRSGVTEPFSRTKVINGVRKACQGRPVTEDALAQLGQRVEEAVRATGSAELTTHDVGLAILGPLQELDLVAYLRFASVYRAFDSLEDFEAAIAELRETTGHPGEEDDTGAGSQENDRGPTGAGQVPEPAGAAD
experiment: isothermal titration calorimetry, one set of sites
Format: binding
measurement kind: pKd
Remember the convention: pKd equals -log10 of concentration in molar.

Nc1ncnc2c1ncn2[C@@H]1O[C@H](COP(=O)(O)OP(=O)(O)O)[C@@H](O)[C@H]1O [ADP]
6.22

Any idea what pKd was measured for Nc1ncnc2c1ncn2[C@@H]1O[C@H](COP(=O)(O)OP(=O)(O)OP(=O)(O)O)[C@@H](O)[C@H]1O [ATP] ? 5.40

Now the molecule Nc1ncnc2c1ncn2[C@H]1C[C@H](O)[C@@H](COP(=O)(O)OP(=O)(O)OP(=O)(O)O)O1 [dATP] 6.00

Try this molecule too: Nc1ncnc2c1ncn2[C@H]1C[C@H](O)[C@@H](COP(=O)(O)OP(=O)(O)O)O1 [dADP] 6.40
